// provenance: ChEMBL document CHEMBL1143501

Molecular target: Mu-type opioid receptor (Cavia porcellus)
Sequence (P97266 whole entry): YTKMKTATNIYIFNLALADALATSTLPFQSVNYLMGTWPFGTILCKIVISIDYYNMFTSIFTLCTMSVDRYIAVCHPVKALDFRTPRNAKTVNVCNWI
Assay: Relative potency of EM-2 measured towards Opioid receptor mu 1 assayed with [3H]DAMGO
Residues, ends and D or L forms follow the SMILES beside them.
measured_endpoint: Relative potency
Give your answer as a number; write no unit.

INSERT INTO assay_data (compound, recorded_measurement) VALUES
  ('NNC(=O)[C@H](Cc1ccccc1)NC(=O)[C@H](Cc1ccccc1)NC(=O)[C@@H]1CCCN1C(=O)[C@@H](N)Cc1ccc(O)cc1', 0.88),
  ('COC(=O)[C@H](Cc1ccccc1)NC(=O)[C@H](Cc1ccccc1)NC(=O)[C@@H]1CCCN1C(=O)[C@@H](N)Cc1ccc(O)cc1', 0.91),
  ('NC(=O)[C@H](Cc1ccccc1)NC(=O)[C@@H]1CCCN1C(=O)[C@@H](N)Cc1ccc(O)cc1 (H-Tyr-Pro-Phe-NH2)', 0.059);

Form: item `NC(=O)[C@H](Cc1ccccc1)NC(=O)[C@@H]1CCCN1C(=O)[C@H](Cc1ccc(O)cc1)NCCC(=O)[C@H](Cc1ccccc1)NC(=O)[C@@H]1CCCN1C(=O)[C@@H](N)Cc1ccc(O)cc1` ; test system Mu-type opioid receptor (Cavia porcellus); Relative potency: 0.32

###

The following compounds are listed with their measured pIC50 values.
Target: Mu-type opioid receptor (Cavia porcellus)
Experiment: In vitro inhibitory concentration against Opioid receptor mu 1 was measured using guinea pig ileum assay
Assay type: tissue-based
Starred links: 1 amine or outer side, 2 acyl side, 3 side chain; linkers in the order of their positions; H or OH if unused. Positions of bridges follow the written chain, without caps; N, C: chain ends. Residues, ends and D or L forms follow the SMILES beside them. Chains are numbered I, II in the order given. Ethylenediamine = C(CN[*:2])N[*:1]
Reminder that pIC50 means the negative base-10 logarithm of the concentration expressed in mol/L.

INSERT INTO measurements (compound, measured_endpoint, recorded_measurement) VALUES
  ('N[C@@H](Cc1ccc(O)cc1)C(=O)N1CCC[C@H]1C(=O)N[C@@H](Cc1ccccc1)C(=O)N[C@@H](Cc1ccccc1)C(=O)NNC(=O)[C@H](Cc1ccccc1)NC(=O)[C@H](Cc1ccccc1)NC(=O)[C@@H]1CCCN1C(=O)[C@@H](N)Cc1ccc(O)cc1', 'pIC50', 6.29),
  ('N[C@@H](Cc1ccc(O)cc1)C(=O)N1CCC[C@H]1C(=O)N[C@@H](Cc1ccccc1)C(=O)N[C@@H](Cc1ccccc1)C(=O)NCCNC(=O)[C@H](Cc1ccccc1)NC(=O)[C@H](Cc1ccccc1)NC(=O)[C@@H]1CCCN1C(=O)[C@@H](N)Cc1ccc(O)cc1', 'pIC50', 5.45),
  ('NNC(=O)[C@H](Cc1ccccc1)NC(=O)[C@H](Cc1ccccc1)NC(=O)[C@@H]1CCCN1C(=O)[C@@H](N)Cc1ccc(O)cc1', 'pIC50', 6.88),
  ('COC(=O)[C@H](Cc1ccccc1)NC(=O)[C@H](Cc1ccccc1)NC(=O)[C@@H]1CCCN1C(=O)[C@@H](N)Cc1ccc(O)cc1', 'pIC50', 7.38);

Short answer for N[C@@H](Cc1ccc(O)cc1)C(=O)N1CCC[C@H]1C(=O)N[C@@H](Cc1ccccc1)C(=O)NCCNC(=O)[C@H](Cc1ccccc1)NC(=O)[C@@H]1CCCN1C(=O)[C@@H](N)Cc1ccc(O)cc1 (I: H-Tyr-Pro-Phe / II: H-Tyr-Pro-Phe; linker I:C-II:C via Ethylenediamine) : pIC50 was 6.66

Short answer for `N[C@@H](Cc1ccc(O)cc1)C(=O)N1CCC[C@H]1C(=O)N[C@@H](Cc1ccccc1)C(=O)NNC(=O)[C@H](Cc1ccccc1)NC(=O)[C@@H]1CCCN1C(=O)[C@@H](N)Cc1ccc(O)cc1` : pIC50 was 5.95
